# target.or.test.system: endothelial lipase (EL) (Homo sapiens, UniProt Q9Y5X9)
# Construct: transformed by RAGE technology (Athersys) to overexpress endogenous EL; endogenous in cells; conditioned medium used as the enzyme source
# Sequence (Q9Y5X9 21-500): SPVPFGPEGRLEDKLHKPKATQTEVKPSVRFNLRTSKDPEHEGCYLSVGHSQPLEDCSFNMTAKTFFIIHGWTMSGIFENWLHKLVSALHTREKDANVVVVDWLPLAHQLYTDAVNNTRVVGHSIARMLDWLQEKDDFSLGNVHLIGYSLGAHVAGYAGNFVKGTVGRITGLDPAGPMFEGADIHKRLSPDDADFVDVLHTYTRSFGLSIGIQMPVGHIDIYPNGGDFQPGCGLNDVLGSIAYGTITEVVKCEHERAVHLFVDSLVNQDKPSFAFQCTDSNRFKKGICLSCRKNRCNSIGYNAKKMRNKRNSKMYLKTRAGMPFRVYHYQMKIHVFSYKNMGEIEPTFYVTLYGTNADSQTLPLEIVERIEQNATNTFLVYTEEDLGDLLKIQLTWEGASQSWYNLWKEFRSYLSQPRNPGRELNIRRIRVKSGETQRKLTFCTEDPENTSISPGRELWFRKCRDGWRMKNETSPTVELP
# measurement.description: Endothelial lipase (EL) enzymatic assay with fluorescent substrate A10070 in DMPG vesicles
# details: conditioned media from HT-1080 cells overexpressing endogenous EL, 20 min preincubation at 37° C.
endpoint.label: IC50 (nM)

A = C[C@@H](NC(=O)c1[nH]c(=O)[nH]c(=O)c1N)c1ccc2ccccc2c1 [Example 14]
B = C[C@H](COc1ccc(S(C)(=O)=O)cc1)NC(=O)c1[nH]c(=O)[nH]c(=O)c1N [Example 103]
Could you determine which record has the numerically smaller IC50? Candidates: A and B State the label of the item chosen.
B
(B: 559 nM, A: 7510 nM)

A = C[C@H](COc1ccc2c(c1)NC(=O)CC2)NC(=O)c1[nH]c(=O)[nH]c(=O)c1N [Example 120]
B = CC(CNC(=O)c1[nH]c(=O)[nH]c(=O)c1N)Oc1ccc(F)cc1 (stereo not drawn) [Example 15]
C = C[C@@H](NC(=O)c1[nH]c(=O)[nH]c(=O)c1N)c1cccc(-c2cnn(CCc3c[nH]c4ccccc34)c2)c1 [Example 155]
D = Cc1nc2cc(OC[C@@H](C)NC(=O)c3[nH]c(=O)[nH]c(=O)c3N)ccc2s1 [Example 84]
Put these in order: smallest IC50 first, largest last. Please list each label once, in the requested order.
C, D, A, B
(C: 422 nM, D: 2000 nM, A: 5400 nM, B: 9930 nM)

1 = C[C@H](COc1ccc(Cl)cc1C(=O)c1ccccc1)NC(=O)c1[nH]c(=O)[nH]c(=O)c1N [Example 88]
2 = Nc1c(C(=O)NCC2CCN(C(=O)c3ccccc3)C2)[nH]c(=O)[nH]c1=O (stereo not drawn) [Example 44]
Which gives the smaller IC50 number: 1 or 2 ? Indicate which entry you chose by stating its label.
1
(1: 509 nM, 2: 3070 nM)
